Attribution: patent US11471456B2

# method: HPLC solubility in SGF, FaSSIF, FeSSIF at 37° C.
# Type: physicochemical
# recorded-conditions: thermodynamic from solid, FaSSIF, 24 hr
value-kind: solubility at 24 h
Include the unit right after the number.

IN: Requested field: solubility at 24 h. Item: CC(C)(O)[C@H]1CC[C@H](Nc2ccc3ncc(-c4cccc(C(F)(F)F)c4)n3n2)CC1 [compound of structure (I)]
OUT: 7.91 µg/mL

* * *

# method: Oral bioavailability of the compound of structure (I) in rats with different excipients
# Assay type: in vivo
# recorded-conditions: rat, in vivo, po, excipient 10% PS-20, read-out: Oral Bioavailability (% F)
value-kind: bioavailability (%)
Numbers only, in %.

IN: Requested field: bioavailability. Item: `CC(C)(O)[C@H]1CC[C@H](Nc2ccc3ncc(-c4cccc(C(F)(F)F)c4)n3n2)CC1`
OUT: 39

* * *

# method: Oral bioavailability of the compound of structure (I) in rats with different excipients
# Type: in vivo
# recorded-conditions: rat, in vivo, po, excipient 10% EtOH/10% PEG300/20% HS15, read-out: Oral Bioavailability (% F)
value-kind: bioavailability (%)
One number for each entry, in %.

IN: Requested field: bioavailability. Item: `CC(C)(O)[C@H]1CC[C@H](Nc2ccc3ncc(-c4cccc(C(F)(F)F)c4)n3n2)CC1`
OUT: 38

* * *

# method: HPLC solubility in SGF, FaSSIF, FeSSIF at 37° C.
# Assay type: physicochemical
# recorded-conditions: thermodynamic from solid, FaSSIF, 2 hr
value-kind: solubility at 2 h
Include the unit right after the number.

IN: Requested field: solubility at 2 h. Item: `CC(C)(O)[C@H]1CC[C@H](Nc2ccc3ncc(-c4cccc(C(F)(F)F)c4)n3n2)CC1`
OUT: 9.81 µg/mL

* * *

# method: Oral bioavailability of the compound of structure (I) in rats with different excipients
# Format: in vivo
# recorded-conditions: rat, in vivo, po, excipient Corn Oil, read-out: Oral Bioavailability (% F)
value-kind: bioavailability (%)
Give bare numbers, in %.

IN: Requested field: bioavailability. Item: CC(C)(O)[C@H]1CC[C@H](Nc2ccc3ncc(-c4cccc(C(F)(F)F)c4)n3n2)CC1 [compound of structure (I)]
OUT: 0

* * *

# method: HPLC solubility in SGF, FaSSIF, FeSSIF at 37° C.
# Assay type: physicochemical
# recorded-conditions: thermodynamic from solid, FeSSIF, 0.5 hr
value-kind: solubility at 0.5 h (µg/mL)
Give bare numbers, in µg/mL.

IN: Requested field: solubility at 0.5 h. Item: `CC(C)(O)[C@H]1CC[C@H](Nc2ccc3ncc(-c4cccc(C(F)(F)F)c4)n3n2)CC1`
OUT: 96.8

* * *

# method: Oral bioavailability of the compound of structure (I) in rats with different excipients
# Assay type: in vivo
# recorded-conditions: rat, in vivo, po, Dry Powder (capsule), administered alone, read-out: Oral Bioavailability (% F)
value-kind: bioavailability (%)
Numbers only, in %.

IN: Requested field: bioavailability. Item: CC(C)(O)[C@H]1CC[C@H](Nc2ccc3ncc(-c4cccc(C(F)(F)F)c4)n3n2)CC1 [compound of structure (I)]
OUT: 0

* * *

# method: Oral bioavailability of the compound of structure (I) in rats with different excipients
# Format: in vivo
# recorded-conditions: rat, in vivo, po, excipient 10% EtOH/40% PG, read-out: Oral Bioavailability (% F)
value-kind: bioavailability (%)
Answers are plain numbers, in %.

IN: Requested field: bioavailability. Item: CC(C)(O)[C@H]1CC[C@H](Nc2ccc3ncc(-c4cccc(C(F)(F)F)c4)n3n2)CC1 [compound of structure (I)]
OUT: 2
